Here, each record is paired with measured shrunken log2 fold change data.
test system: Escherichia coli TOP10; test: shrunken log2 fold change of peptide-encoding DNA abundance (4.5 h post-induction vs induction); higher = less antimicrobial activity (less host growth inhibition); settings: time post-induction: 4.5 h; library: site-saturation at positions 5, 18, 19, 20
Assay Readout: shrunken log2 fold change

{"Sequence String": "RRIRDRPPRLPRPRPRPVFRPRP", "Measured Number": 0.18}
{"Sequence String": "RRIRDRPPRLPRPRPRPWMQPRP", "Measured Number": -0.0999}
{"Sequence String": "RRIRCRPPRLPRPRPRPWKAPRP", "Measured Number": 0.0231}
{"Sequence String": "RRIRKRPPRLPRPRPRPDWIPRP", "Measured Number": -0.0252}
{"Sequence String": "RRIRTRPPRLPRPRPRPLPMPRP", "Measured Number": -0.0573}
{"Sequence String": "RRIRNRPPRLPRPRPRPPNEPRP", "Measured Number": 0.217}
{"Sequence String": "RRIRNRPPRLPRPRPRPGNGPRP", "Measured Number": -0.462}
{"Sequence String": "RRIRMRPPRLPRPRPRPFWWPRP", "Measured Number": 0.158}
{"Sequence String": "RRIRKRPPRLPRPRPRPSTAPRP", "Measured Number": -0.177}
{"Sequence String": "RRIRYRPPRLPRPRPRPVTEPRP", "Measured Number": -0.134}
{"Sequence String": "RRIRLRPPRLPRPRPRPWDMPRP", "Measured Number": -0.235}
{"Sequence String": "RRIRFRPPRLPRPRPRPCETPRP", "Measured Number": -0.00947}
{"Sequence String": "RRIRWRPPRLPRPRPRPRVSPRP", "Measured Number": 0.158}
{"Sequence String": "RRIRRRPPRLPRPRPRPCTMPRP", "Measured Number": -0.451}
{"Sequence String": "RRIRGRPPRLPRPRPRPFGQPRP", "Measured Number": 0.368}
{"Sequence String": "RRIRMRPPRLPRPRPRPKYSPRP", "Measured Number": -0.326}
{"Sequence String": "RRIRFRPPRLPRPRPRPYKGPRP", "Measured Number": -0.631}
{"Sequence String": "RRIRMRPPRLPRPRPRPEKNPRP", "Measured Number": 2.16}
{"Sequence String": "RRIRSRPPRLPRPRPRPMELPRP", "Measured Number": -0.187}
{"Sequence String": "RRIRPRPPRLPRPRPRPCDQPRP", "Measured Number": -0.758}
{"Sequence String": "RRIRMRPPRLPRPRPRPERWPRP", "Measured Number": 1.5}
{"Sequence String": "RRIRHRPPRLPRPRPRPLCRPRP", "Measured Number": 0.0244}
{"Sequence String": "RRIRMRPPRLPRPRPRPPTFPRP", "Measured Number": 0.122}
{"Sequence String": "RRIRMRPPRLPRPRPRPFYEPRP", "Measured Number": 0.027}
{"Sequence String": "RRIRNRPPRLPRPRPRPTVEPRP", "Measured Number": 0.0287}
{"Sequence String": "RRIRSRPPRLPRPRPRPLSNPRP", "Measured Number": -0.00773}
{"Sequence String": "RRIRPRPPRLPRPRPRPQHMPRP", "Measured Number": -0.537}
{"Sequence String": "RRIRERPPRLPRPRPRPNRMPRP", "Measured Number": -1.36}
{"Sequence String": "RRIRVRPPRLPRPRPRPVGSPRP", "Measured Number": 0.289}
{"Sequence String": "RRIRHRPPRLPRPRPRPDNPPRP", "Measured Number": -0.0868}
{"Sequence String": "RRIRARPPRLPRPRPRPLGMPRP", "Measured Number": 0.0985}
{"Sequence String": "RRIRDRPPRLPRPRPRPQKYPRP", "Measured Number": -0.432}
{"Sequence String": "RRIRKRPPRLPRPRPRPERHPRP", "Measured Number": 0.105}
{"Sequence String": "RRIRCRPPRLPRPRPRPLIIPRP", "Measured Number": -1.07}
{"Sequence String": "RRIRGRPPRLPRPRPRPLCTPRP", "Measured Number": 2.26}
{"Sequence String": "RRIRYRPPRLPRPRPRPRPLPRP", "Measured Number": -0.3}
{"Sequence String": "RRIRMRPPRLPRPRPRPAPFPRP", "Measured Number": 0.575}
{"Sequence String": "RRIRYRPPRLPRPRPRPVFDPRP", "Measured Number": -1.18}
{"Sequence String": "RRIRGRPPRLPRPRPRPCGVPRP", "Measured Number": 0.578}
{"Sequence String": "RRIRPRPPRLPRPRPRPRSEPRP", "Measured Number": 0.564}
{"Sequence String": "RRIRYRPPRLPRPRPRPFVKPRP", "Measured Number": -0.79}
{"Sequence String": "RRIRQRPPRLPRPRPRPFLDPRP", "Measured Number": -0.372}
{"Sequence String": "RRIRWRPPRLPRPRPRPDLGPRP", "Measured Number": -0.135}
{"Sequence String": "RRIRARPPRLPRPRPRPQWDPRP", "Measured Number": 0.00442}
{"Sequence String": "RRIRRRPPRLPRPRPRPRQSPRP", "Measured Number": 0.243}
{"Sequence String": "RRIRYRPPRLPRPRPRPDYVPRP", "Measured Number": -0.447}
{"Sequence String": "RRIRSRPPRLPRPRPRPGDTPRP", "Measured Number": 1.51}
{"Sequence String": "RRIRSRPPRLPRPRPRPSPQPRP", "Measured Number": -0.108}
{"Sequence String": "RRIRDRPPRLPRPRPRPDKEPRP", "Measured Number": -0.0124}
{"Sequence String": "RRIRTRPPRLPRPRPRPVICPRP", "Measured Number": -0.157}
{"Sequence String": "RRIRIRPPRLPRPRPRPPQWPRP", "Measured Number": 0.205}
{"Sequence String": "RRIRKRPPRLPRPRPRPHCTPRP", "Measured Number": -0.24}
{"Sequence String": "RRIRERPPRLPRPRPRPIICPRP", "Measured Number": -0.0147}
{"Sequence String": "RRIRERPPRLPRPRPRPLQLPRP", "Measured Number": -0.33}
{"Sequence String": "RRIRLRPPRLPRPRPRPQRDPRP", "Measured Number": 0.231}
{"Sequence String": "RRIRHRPPRLPRPRPRPSVTPRP", "Measured Number": -0.453}
{"Sequence String": "RRIRKRPPRLPRPRPRPNMDPRP", "Measured Number": -0.0504}
{"Sequence String": "RRIRNRPPRLPRPRPRPLINPRP", "Measured Number": -0.533}
{"Sequence String": "RRIRFRPPRLPRPRPRPPSDPRP", "Measured Number": 0.201}
{"Sequence String": "RRIRVRPPRLPRPRPRPQASPRP", "Measured Number": 0.322}
{"Sequence String": "RRIRMRPPRLPRPRPRPPKPPRP", "Measured Number": 0.717}
{"Sequence String": "RRIRTRPPRLPRPRPRPSDYPRP", "Measured Number": -0.278}
{"Sequence String": "RRIRQRPPRLPRPRPRPATDPRP", "Measured Number": -0.0316}

====

system: Escherichia coli TOP10; test: shrunken log2 fold change of peptide-encoding DNA abundance (4.5 h post-induction vs induction); higher = less antimicrobial activity (less host growth inhibition); details: time post-induction: 4.5 h; library: site-saturation at positions 5, 18, 19, 20;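 also: peptides expressed intracellularly from a pBAD plasmid library in pooled LB shake-flask culture, induced with 0.3% L-arabinose, DNA abundance read by NGS, three biological replicates, DESeq2 with apeglm shrinkage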

{"Sequence String": "RRIRFRPPRLPRPRPRPCWFPRP", "shrunken log2 fold change": -0.509}
{"Sequence String": "RRIRGRPPRLPRPRPRPTHWPRP", "shrunken log2 fold change": 0.629}
{"Sequence String": "RRIRRRPPRLPRPRPRPLIKPRP", "shrunken log2 fold change": -0.0254}
{"Sequence String": "RRIRLRPPRLPRPRPRPGKFPRP", "shrunken log2 fold change": 0.117}
{"Sequence String": "RRIRWRPPRLPRPRPRPATCPRP", "shrunken log2 fold change": 0.275}
{"Sequence String": "RRIRWRPPRLPRPRPRPHNSPRP", "shrunken log2 fold change": -0.394}
{"Sequence String": "RRIRDRPPRLPRPRPRPACPPRP", "shrunken log2 fold change": 0.962}
{"Sequence String": "RRIRLRPPRLPRPRPRPYIMPRP", "shrunken log2 fold change": -1.45}
{"Sequence String": "RRIRCRPPRLPRPRPRPCGRPRP", "shrunken log2 fold change": -0.184}
{"Sequence String": "RRIRERPPRLPRPRPRPKKLPRP", "shrunken log2 fold change": -0.083}
{"Sequence String": "RRIRERPPRLPRPRPRPTAYPRP", "shrunken log2 fold change": -0.166}
{"Sequence String": "RRIRPRPPRLPRPRPRPFEKPRP", "shrunken log2 fold change": 0.0465}
{"Sequence String": "RRIRRRPPRLPRPRPRPNGLPRP", "shrunken log2 fold change": 0.0125}
{"Sequence String": "RRIRPRPPRLPRPRPRPRLMPRP", "shrunken log2 fold change": 0.337}
{"Sequence String": "RRIRVRPPRLPRPRPRPEWHPRP", "shrunken log2 fold change": -0.158}
{"Sequence String": "RRIRRRPPRLPRPRPRPCPDPRP", "shrunken log2 fold change": -0.0762}
{"Sequence String": "RRIRQRPPRLPRPRPRPNKEPRP", "shrunken log2 fold change": 0.00917}
{"Sequence String": "RRIRYRPPRLPRPRPRPSLRPRP", "shrunken log2 fold change": -0.9}
{"Sequence String": "RRIRPRPPRLPRPRPRPDFKPRP", "shrunken log2 fold change": -0.464}
{"Sequence String": "RRIRMRPPRLPRPRPRPMYHPRP", "shrunken log2 fold change": -0.0178}
{"Sequence String": "RRIRCRPPRLPRPRPRPWRFPRP", "shrunken log2 fold change": 0.145}
{"Sequence String": "RRIRIRPPRLPRPRPRPIDWPRP", "shrunken log2 fold change": -0.0878}
{"Sequence String": "RRIRRRPPRLPRPRPRPVHWPRP", "shrunken log2 fold change": 0.00204}
{"Sequence String": "RRIRPRPPRLPRPRPRPNKNPRP", "shrunken log2 fold change": -0.24}
{"Sequence String": "RRIRARPPRLPRPRPRPQGWPRP", "shrunken log2 fold change": 0.472}
{"Sequence String": "RRIRHRPPRLPRPRPRPCFDPRP", "shrunken log2 fold change": -0.00612}
{"Sequence String": "RRIRWRPPRLPRPRPRPTRCPRP", "shrunken log2 fold change": 0.0338}
{"Sequence String": "RRIRDRPPRLPRPRPRPDQKPRP", "shrunken log2 fold change": -0.0052}
{"Sequence String": "RRIRPRPPRLPRPRPRPPREPRP", "shrunken log2 fold change": 0.678}
{"Sequence String": "RRIRGRPPRLPRPRPRPECNPRP", "shrunken log2 fold change": 1.95}
{"Sequence String": "RRIRDRPPRLPRPRPRPSRIPRP", "shrunken log2 fold change": -0.307}
{"Sequence String": "RRIRLRPPRLPRPRPRPKQYPRP", "shrunken log2 fold change": -0.661}
